TESTED_SYSTEM: the molecule itself
TEST_NAME: steric trap, PG/PC
ASSAY_READOUT: Kd (nM)
Expressed in nM, but write only the number.

Task: # query: Kd of entry Glycophorin A TM domain (SNGpATM) TMD (protein) GERVQLAHHFSEPEITLIIFGVMAGVIGTILLISYGIRRLIKKSPSDVKPLPSPDTDVPLSSVEIENPETSDQ
Result: 14
